assay: Thermodynamic equilibrium solubility in stimulated gastric fluid at 120 ug/ml at pH 1.2 by HPLC analysis; format: ADME; details: simulated gastric fluid, read-out: Therm_solubility

- molecule: "Cc1cc(=O)c2c(O)cc(O)c([C@H]3CCN(C)C[C@H]3O)c2o1 [ROHITUKINE]"
  solubility thermodynamic (mg/mL): 33.4

* * *

target: CDK9/cyclin T1 (Homo sapiens, UniProt P50750); assay: Inhibition of human Cdk9/T1 using YSPTSPSYSPTSPSYSPTSPKKK peptide as substrate after 30 mins by 33P-ATP filter-binding assay; format: protein-complex assay
Sequence (O60563 whole entry): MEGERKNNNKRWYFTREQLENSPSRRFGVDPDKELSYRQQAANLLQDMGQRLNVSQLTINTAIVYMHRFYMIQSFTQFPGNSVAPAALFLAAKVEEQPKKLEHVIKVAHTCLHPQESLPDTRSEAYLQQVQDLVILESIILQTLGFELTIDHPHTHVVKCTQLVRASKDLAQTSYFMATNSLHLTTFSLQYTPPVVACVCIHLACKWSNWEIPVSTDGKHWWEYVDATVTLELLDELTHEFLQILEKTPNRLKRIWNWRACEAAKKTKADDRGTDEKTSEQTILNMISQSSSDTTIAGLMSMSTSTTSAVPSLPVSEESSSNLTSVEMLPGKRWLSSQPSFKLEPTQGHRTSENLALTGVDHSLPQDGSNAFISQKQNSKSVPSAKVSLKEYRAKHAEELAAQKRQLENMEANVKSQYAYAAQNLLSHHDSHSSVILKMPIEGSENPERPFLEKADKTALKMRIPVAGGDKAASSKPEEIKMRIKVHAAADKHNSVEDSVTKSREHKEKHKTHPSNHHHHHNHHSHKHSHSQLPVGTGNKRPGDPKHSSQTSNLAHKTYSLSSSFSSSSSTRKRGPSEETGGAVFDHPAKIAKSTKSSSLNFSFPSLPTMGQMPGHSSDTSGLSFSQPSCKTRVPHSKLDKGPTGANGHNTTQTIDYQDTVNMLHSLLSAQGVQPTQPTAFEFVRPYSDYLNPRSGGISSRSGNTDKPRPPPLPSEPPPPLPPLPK
Sequence (P50750 whole entry): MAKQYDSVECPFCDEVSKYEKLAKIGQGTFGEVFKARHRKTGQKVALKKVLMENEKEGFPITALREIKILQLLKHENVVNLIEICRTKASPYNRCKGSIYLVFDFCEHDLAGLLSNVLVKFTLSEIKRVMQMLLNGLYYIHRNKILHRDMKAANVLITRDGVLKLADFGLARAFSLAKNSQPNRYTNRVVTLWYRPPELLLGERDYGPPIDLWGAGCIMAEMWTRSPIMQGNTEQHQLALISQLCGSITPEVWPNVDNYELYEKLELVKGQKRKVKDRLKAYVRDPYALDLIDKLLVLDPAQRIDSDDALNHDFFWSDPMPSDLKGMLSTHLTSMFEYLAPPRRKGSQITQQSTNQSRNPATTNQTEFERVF

- compound-string: "Cc1cc(=O)c2c(O)cc(O)c([C@H]3CCN(C)C[C@H]3O)c2o1"
  target-under-test: "CDK9/cyclin T1 (Homo sapiens, UniProt P50750)"
  IC50 / nM: 300

* * *

experiment: Stability in SIF solution assessed as reduction in compound AUC at 120 ug/ml after 8 hrs by RP-HPLC analysis; type: physicochemical; conditions: read-out: Drug degradation
measurement-type: degraded at 8 h, 120 ug/ml (%)

- compound-string: "Cc1cc(=O)c2c(O)cc(O)c([C@H]3CCN(C)C[C@H]3O)c2o1"
  unit-of-measure: "%"
  experimental-result: 2.42

* * *

experiment: Cytotoxicity against human FR2 cells assessed as cell growth inhibition after 48 hrs by MTT assay; format: cell-based

- compound: "Cc1cc(=O)c2c(O)cc(O)c([C@H]3CCN(C)C[C@H]3O)c2o1 [ROHITUKINE]"
  GI50 at 48 h: "> 50 µM"

* * *

experiment: Thermodynamic equilibrium solubility in water at 120 ug/ml by HPLC analysis; type: physicochemical; settings: read-out: Therm_solubility

- compound-string: "Cc1cc(=O)c2c(O)cc(O)c([C@H]3CCN(C)C[C@H]3O)c2o1"
  solubility thermodynamic: "10.2 mg/mL"

* * *

test: Cytotoxicity against HEK293 cells assessed as cell growth inhibition after 48 hrs by MTT assay; assay type: cell-based; details: human

- compound-string: "Cc1cc(=O)c2c(O)cc(O)c([C@H]3CCN(C)C[C@H]3O)c2o1"
  GI50 at 48 h: "> 50 µM"

* * *

experiment: Partition coefficient, logP of the compound in water/PBS buffer at 25 degC by retention time method; format: physicochemical

- molecule: "Cc1cc(=O)c2c(O)cc(O)c([C@H]3CCN(C)C[C@H]3O)c2o1 [ROHITUKINE]"
  logP: 1.01

* * *

test: Thermodynamic equilibrium solubility in PBS buffer at 120 ug/ml at pH 7.4 by HPLC analysis; assay type: physicochemical; conditions: read-out: Therm_solubility
measurement-type: solubility thermodynamic (mg/mL)

- compound-string: "Cc1cc(=O)c2c(O)cc(O)c([C@H]3CCN(C)C[C@H]3O)c2o1"
  measurement-type: "solubility thermodynamic"
  experimental-result: 16.9

* * *

test: Distribution coefficient, logD of the compound in water/PBS buffer at pH 7.4 at 25 degC after 20 mins by shake flask method; assay type: physicochemical

- compound-string: "Cc1cc(=O)c2c(O)cc(O)c([C@H]3CCN(C)C[C@H]3O)c2o1"
  logD at 20 min: -0.55
- compound-string: "CN1CC[C@H](c2c(O)cc(O)c3c(=O)cc(-c4ccccc4Cl)oc23)[C@H](O)C1"
  logD at 20 min: 1.24
